tested on: PBMC; assay: Cytotoxicity against human PBMC at 2 times IC50 concentration after 48 hrs by MTT assay; assay type: cell-based
readout: Activity (%)
Write the answer as a number in %, unit excluded.

Under PBMC: Activity value of COC(=O)C(Cc1ccccc1)NC(=O)CCCCc1ccc2c(c1)OCO2 (stereo not given) ?
7.2

Under PBMC: Activity value of CC(C)C(NC(=O)/C=C/C=C/c1ccc2c(c1)OCO2)C(=O)O (stereo not given) ?
9

Under PBMC: Activity value of CSCCC(NC(=O)/C=C/C=C/c1ccc2c(c1)OCO2)C(=O)O (stereo not given) ?
7.7

Under PBMC: Activity value of COC(=O)C(NC(=O)/C=C/C=C/c1ccc2c(c1)OCO2)C(C)C (stereo not given) ?
3.8

Under PBMC: Activity value of COC(=O)C(CCSC)NC(=O)CCCCc1ccc2c(c1)OCO2 (stereo not given) ?
5

Under PBMC: Activity value of COC(=O)C(Cc1ccc(O)cc1)NC(=O)/C=C/C=C/c1ccc2c(c1)OCO2 (stereo not given) ?
6

Under PBMC: Activity value of O=C(/C=C/C=C/c1ccc2c(c1)OCO2)N1CCCCC1 [PIPERINE] ?
10

Under PBMC: Activity value of COC(=O)[C@@H](N)Cc1c[nH]c2ccccc12 [TRYPTOPHAN METHYL ESTER] ?
5.3

Under PBMC: Activity value of O=C(/C=C/C=C/c1ccc2c(c1)OCO2)NC(Cc1c[nH]c2ccccc12)C(=O)O (stereo not given) ?
10

Under PBMC: Activity value of COC(=O)C(Cc1ccccc1)NC(=O)/C=C/C=C/c1ccc2c(c1)OCO2 (stereo not given) ?
7
